Each recorded value in this set is attributed to PubChem BioAssay AID608.

Target: Peptidyl-prolyl cis-trans isomerase FKBP1A (Homo sapiens)
Assay: small-molecule binding to FKBP12 – biophysical, NMR detection (AID 608)
Conditions: purified FKBP12
The source made the active and inactive calls. The rule behind the calls is not given here.
The reply should name one outcome from class 1 = active, class 0 = inactive

Task item: Identify the outcome logged in this assay for the compound shown: O=C1C=CC(=O)c2c(O)cccc21
Reply: class 0

Task item: Identify the outcome logged in this assay for the compound shown: NCc1csc(-c2cccs2)n1
Reply: class 0

Task item: Identify the outcome logged in this assay for the compound shown: COc1cc2c(cc1OC)C1(O)C(=O)c3ccc(O)c(C(=O)O)c3OC1CO2 (stereo not given)
Reply: class 0

Task item: Identify the outcome logged in this assay for the compound shown: CC(=O)Nc1ccc(C(=O)NC2CCSC2=O)cc1 (stereo not given)
Reply: class 0

Task item: Identify the outcome logged in this assay for the compound shown: Cc1nccn1CCC(=O)O
Reply: class 0

Task item: Identify the outcome logged in this assay for the compound shown: Cc1nnc(N2CCc3ccccc3C2)[nH]c1=O
Reply: class 0

Task item: Identify the outcome logged in this assay for the compound shown: CC(C)c1ccc(SC(F)(F)C(=O)N2CCOCC2)cc1
Reply: class 1

Task item: Identify the outcome logged in this assay for the compound shown: CC(=O)N/N=C(\C)c1cccc(N)c1
Reply: class 0

Task item: Identify the outcome logged in this assay for the compound shown: CC(=O)Nc1nnc(-c2ccccc2S(C)(=O)=O)o1
Reply: class 0

Task item: Identify the outcome logged in this assay for the compound shown: CC(=O)c1cccc(N=C2NC(=O)CS2)c1
Reply: class 0

Task item: Identify the outcome logged in this assay for the compound shown: c1ccc(-n2nnnc2-n2cnc3ccccc32)cc1
Reply: class 0

Task item: Identify the outcome logged in this assay for the compound shown: CC1=CC2C(C(C)C)CCC(C)(O)C2CC1 (stereo not given)
Reply: class 0

Task item: Identify the outcome logged in this assay for the compound shown: c1nnc2c3c4c(sc3ncn12)CCCC4
Reply: class 0

Task item: Identify the outcome logged in this assay for the compound shown: CCC(C)C(=O)O[C@H]1[C@H](O)C2C(CN3CC(C)CCC3[C@@]2(C)O)C2C[C@]34O[C@]5(O)C(OC(=O)C(C)(O)C(C)O)CC[C@@]3(C)C5C(OC(C)=O)[C@@H](OC(C)=O)C4[C@@]21O (stereo not given in full)
Reply: class 0

Task item: Identify the outcome logged in this assay for the compound shown: CCOC(=O)c1ccc(F)c(F)c1
Reply: class 0

Task item: Identify the outcome logged in this assay for the compound shown: CN(C)S(=O)(=O)c1ccc(C(=O)NN)cc1
Reply: class 0

Task item: Identify the outcome logged in this assay for the compound shown: COc1cnn(-c2ccccc2)c(=O)c1N(C)C
Reply: class 0

Task item: Identify the outcome logged in this assay for the compound shown: CC(=O)c1ccc(NS(=O)(=O)c2cccc(C)c2)cc1
Reply: class 0

Task item: Identify the outcome logged in this assay for the compound shown: O=C1O[C@H](C(O)CO)C(O)=C1O (stereo not given in full)
Reply: class 0

Task item: Identify the outcome logged in this assay for the compound shown: O=C1CSC(=Nc2cc(Cl)ccc2Cl)N1
Reply: class 0

Task item: Identify the outcome logged in this assay for the compound shown: O=C(O)CCCCCCCC(=O)O
Reply: class 0

Task item: Identify the outcome logged in this assay for the compound shown: CC1=NN2C(=N)/C(=C\c3cccs3)C(=O)N=C2S1
Reply: class 0

Task item: Identify the outcome logged in this assay for the compound shown: COc1ccc(OCC(=O)N2CCOCC2)cc1
Reply: class 0

Task item: Identify the outcome logged in this assay for the compound shown: Cc1cc2cc3c(C)cc(=O)oc3c(C)c2o1
Reply: class 0

Task item: Identify the outcome logged in this assay for the compound shown: C/C=C(\C)C(=O)O[C@@H]1c2c(ccc3ccc(=O)oc23)OC(C)(C)[C@@H]1OC(C)=O
Reply: class 0

Task item: Identify the outcome logged in this assay for the compound shown: O=c1c(O)c(-c2ccccc2)oc2cc(O)ccc12
Reply: class 0

Task item: Identify the outcome logged in this assay for the compound shown: Cc1cc(C)n(S(=O)(=O)c2ccc(C(C)(C)C)cc2)n1
Reply: class 0

Task item: Identify the outcome logged in this assay for the compound shown: CSc1nn(-c2ccccc2)c(N)c1C#N
Reply: class 0

Task item: Identify the outcome logged in this assay for the compound shown: CN1CCN(c2cc(=O)n(C)c(=O)[nH]2)CC1
Reply: class 0

Task item: Identify the outcome logged in this assay for the compound shown: CC(=O)Nc1cc(O)cc(O)c1
Reply: class 0

Task item: Identify the outcome logged in this assay for the compound shown: Cc1cccc(CO)n1
Reply: class 0

Task item: Identify the outcome logged in this assay for the compound shown: CP(C)(=O)c1cccc(C(=O)O)c1
Reply: class 0

Task item: Identify the outcome logged in this assay for the compound shown: O=C1CCC(c2cccs2)=NN1
Reply: class 0

Task item: Identify the outcome logged in this assay for the compound shown: O=C(CSc1ncn[nH]1)c1ccccc1
Reply: class 0

Task item: Identify the outcome logged in this assay for the compound shown: Cc1ccc(F)cc1NC(=O)c1ccc2c(c1)OCO2
Reply: class 0

Task item: Identify the outcome logged in this assay for the compound shown: CC(=O)OC1CCC23CC1(C)CCC2C(C)(C)CC3OC(C)=O (stereo not given)
Reply: class 0

Task item: Identify the outcome logged in this assay for the compound shown: Cc1cc(NC(=O)c2ccccc2C(=O)O)no1
Reply: class 0

Task item: Identify the outcome logged in this assay for the compound shown: CC(C)C(C)/C=C/C(C)C1CCC2C3=CC=C4CC(O)CCC4(C)C3CCC21C (stereo not given)
Reply: class 0

Task item: Identify the outcome logged in this assay for the compound shown: O=c1oc2c(O)c(O)cc3c(=O)oc4c(O)c(O)cc1c4c23
Reply: class 0

Task item: Identify the outcome logged in this assay for the compound shown: CCN1CCN(c2ncnc3c2nnn3C)CC1
Reply: class 0

Task item: Identify the outcome logged in this assay for the compound shown: O=C(COc1ccc(Cl)cc1Cl)N1CCOCC1
Reply: class 0

Task item: Identify the outcome logged in this assay for the compound shown: CCC(=O)Nc1ccc(-c2nn3c(C)nnc3s2)cc1
Reply: class 0

Task item: Identify the outcome logged in this assay for the compound shown: CC(=O)c1cc(CN2C(=O)c3ccccc3C2=O)cs1
Reply: class 0

Task item: Identify the outcome logged in this assay for the compound shown: O=C(Nc1ccon1)c1ccc(Br)o1
Reply: class 0

Task item: Identify the outcome logged in this assay for the compound shown: CN(C)c1ccc(C2CC(=O)CC(=O)C2)cc1
Reply: class 0

Task item: Identify the outcome logged in this assay for the compound shown: CSc1nc(C)cc(-n2ccc(=O)[nH]c2=O)n1
Reply: class 0

Task item: Identify the outcome logged in this assay for the compound shown: NCc1oc(-c2ccccc2)cc1C(=O)O
Reply: class 0

Task item: Identify the outcome logged in this assay for the compound shown: O=C1C=C(O)c2ccccc2C1=O
Reply: class 0

Task item: Identify the outcome logged in this assay for the compound shown: OC1COCc2nc3ccccc3n2C1 (stereo not given)
Reply: class 0

Task item: Identify the outcome logged in this assay for the compound shown: Cn1nc(-c2ccccc2)cc1N
Reply: class 0

====

Target: Peptidyl-prolyl cis-trans isomerase FKBP1A (Homo sapiens)
Test: small-molecule binding to FKBP12 – biophysical, NMR detection (AID 608)
Settings: purified FKBP12
The source made the active and inactive calls. No rule for the calls is given here.
The reply should name one outcome from active, inactive

Task item: Identify the outcome logged in this assay for the compound shown: O=C(Nc1cccnc1)c1cnn2cccnc12
Reply: inactive

Task item: Identify the outcome logged in this assay for the compound shown: O=C(CSc1ccnc(=O)[nH]1)NCc1ccccc1
Reply: inactive

Task item: Identify the outcome logged in this assay for the compound shown: NC(=O)c1cn(-c2ccccc2)nc1-c1cccnc1
Reply: inactive

Task item: Identify the outcome logged in this assay for the compound shown: Nc1ccccc1-c1nc2ccccc2[nH]1
Reply: active

Task item: Identify the outcome logged in this assay for the compound shown: C/C=C(\C)c1nnc(NC(=O)c2ccco2)s1
Reply: inactive

Task item: Identify the outcome logged in this assay for the compound shown: Cc1cc(F)c(F)c(C(=O)NC2CC2)c1Cl
Reply: inactive

Task item: Identify the outcome logged in this assay for the compound shown: C=C(C)[C@@H]1[C@H]2OC(=O)[C@@H]1[C@]1(O)C[C@H]3O[C@]34C(=O)O[C@H]2[C@]14C
Reply: inactive

Task item: Identify the outcome logged in this assay for the compound shown: COc1c(C)c2c(c(O)c1C/C=C(\C)CCC(=O)O)C(=O)OC2
Reply: inactive

Task item: Identify the outcome logged in this assay for the compound shown: OCc1ccc(N2CCOCC2)cc1
Reply: inactive

Task item: Identify the outcome logged in this assay for the compound shown: CC12CCC(O)CC1CCC1C2[C@H](O)CC2(C)C(C3=CC(=O)OC3)CCC12O (stereo partly drawn)
Reply: inactive

Task item: Identify the outcome logged in this assay for the compound shown: CSc1nc(C)c(Oc2ccccc2)c(=O)n1C
Reply: inactive

Task item: Identify the outcome logged in this assay for the compound shown: O=C(c1ccccc1-c1ccccc1)N1CCOCC1
Reply: inactive

Task item: Identify the outcome logged in this assay for the compound shown: CCN(CC)C(=O)c1n[nH]c(=O)c2ccccc12
Reply: inactive

Task item: Identify the outcome logged in this assay for the compound shown: CCC(=O)Oc1ccc(N2C(=O)CCC2=O)cc1
Reply: inactive

Task item: Identify the outcome logged in this assay for the compound shown: O=C(O)CCC(=O)Nc1ccccc1F
Reply: inactive

Task item: Identify the outcome logged in this assay for the compound shown: COCC(=O)NC1CC(C)(C)NC(C)(C)C1
Reply: inactive

Task item: Identify the outcome logged in this assay for the compound shown: NC(=O)C1CCN(C(=O)c2ccccc2)CC1
Reply: inactive

Task item: Identify the outcome logged in this assay for the compound shown: CN1CCC(NC(=O)Cc2c(F)cccc2Cl)CC1
Reply: inactive

Task item: Identify the outcome logged in this assay for the compound shown: COC(=O)c1cc(-c2c(C)nn(-c3ccccc3)c2C)n[nH]1
Reply: inactive

Task item: Identify the outcome logged in this assay for the compound shown: CC(=O)O[C@H]1CC[C@@]2(C)C(CC[C@]3(C)C2C(=O)C=C2C4[C@@H](C)[C@H](C)CC[C@]4(C(=O)O)CC[C@]23C)C1(C)C (stereo partly drawn)
Reply: inactive

Task item: Identify the outcome logged in this assay for the compound shown: CCc1c(C(=O)N2CCOCC2)csc1C
Reply: inactive

Task item: Identify the outcome logged in this assay for the compound shown: Cn1c(=O)c2ccccc2n(Cc2ccccc2F)c1=O
Reply: inactive

Task item: Identify the outcome logged in this assay for the compound shown: c1ccc2c(c1)nnn2C1CCNCC1
Reply: inactive

Task item: Identify the outcome logged in this assay for the compound shown: O=C(Nn1cnnc1)c1csc2ccccc12
Reply: inactive

Task item: Identify the outcome logged in this assay for the compound shown: Cc1nnc(SCc2ccc(F)cc2)s1
Reply: inactive

Task item: Identify the outcome logged in this assay for the compound shown: CC(C)=NNC(=O)C(=O)Nc1ccc(F)cc1
Reply: inactive

Task item: Identify the outcome logged in this assay for the compound shown: C=C1CCC(C2CC(=O)OC2=O)C(=O)CCC2C1CC2(C)C (stereo not drawn)
Reply: inactive

Task item: Identify the outcome logged in this assay for the compound shown: O=C1CCCN1C(=O)c1ccc(F)cc1
Reply: inactive
